Listed molecules paired with reported IC50
- Study Target: hERG potassium channel (Homo sapiens)
- Assay Comment: biochemical
- Experimental Conditions: hERG / IC50 (nM), Synthesis=Enamine
Numbers only; they are read as nM.

Sample answers from the record:
CN(C)CCn1c(-c2ccccc2Cl)nc2ccccc21 [s_60____1081314____90809] = 7050
CN(C)CCCN(Cc1ccc(Cl)c(Cl)c1)c1ncc(Cl)cc1[N+](=O)[O-] [s_27____7425384____7556080] = 1030
CSc1nccc(N(CCCN(C)C)Cc2ccc(Cl)c(Cl)c2)n1 [s_27____7425384____15607934] = 1090

Please tell me: IC50 of CN(C)CCCn1nc(-c2cccs2)c2ccccc2c1=O [s_49____14518112____101877] , system hERG potassium channel (Homo sapiens)?
1340

Param readout = IC50; param system = hERG potassium channel (Homo sapiens); param query = CN(C)CCN(Cc1ccccc1F)C(=O)c1csc2ccccc12 [s_527____7348186____205300] ; response: value
7040

---

- Study Target: hERG potassium channel (Homo sapiens, UniProt Q12809)
- Sequence (Q12809 whole entry): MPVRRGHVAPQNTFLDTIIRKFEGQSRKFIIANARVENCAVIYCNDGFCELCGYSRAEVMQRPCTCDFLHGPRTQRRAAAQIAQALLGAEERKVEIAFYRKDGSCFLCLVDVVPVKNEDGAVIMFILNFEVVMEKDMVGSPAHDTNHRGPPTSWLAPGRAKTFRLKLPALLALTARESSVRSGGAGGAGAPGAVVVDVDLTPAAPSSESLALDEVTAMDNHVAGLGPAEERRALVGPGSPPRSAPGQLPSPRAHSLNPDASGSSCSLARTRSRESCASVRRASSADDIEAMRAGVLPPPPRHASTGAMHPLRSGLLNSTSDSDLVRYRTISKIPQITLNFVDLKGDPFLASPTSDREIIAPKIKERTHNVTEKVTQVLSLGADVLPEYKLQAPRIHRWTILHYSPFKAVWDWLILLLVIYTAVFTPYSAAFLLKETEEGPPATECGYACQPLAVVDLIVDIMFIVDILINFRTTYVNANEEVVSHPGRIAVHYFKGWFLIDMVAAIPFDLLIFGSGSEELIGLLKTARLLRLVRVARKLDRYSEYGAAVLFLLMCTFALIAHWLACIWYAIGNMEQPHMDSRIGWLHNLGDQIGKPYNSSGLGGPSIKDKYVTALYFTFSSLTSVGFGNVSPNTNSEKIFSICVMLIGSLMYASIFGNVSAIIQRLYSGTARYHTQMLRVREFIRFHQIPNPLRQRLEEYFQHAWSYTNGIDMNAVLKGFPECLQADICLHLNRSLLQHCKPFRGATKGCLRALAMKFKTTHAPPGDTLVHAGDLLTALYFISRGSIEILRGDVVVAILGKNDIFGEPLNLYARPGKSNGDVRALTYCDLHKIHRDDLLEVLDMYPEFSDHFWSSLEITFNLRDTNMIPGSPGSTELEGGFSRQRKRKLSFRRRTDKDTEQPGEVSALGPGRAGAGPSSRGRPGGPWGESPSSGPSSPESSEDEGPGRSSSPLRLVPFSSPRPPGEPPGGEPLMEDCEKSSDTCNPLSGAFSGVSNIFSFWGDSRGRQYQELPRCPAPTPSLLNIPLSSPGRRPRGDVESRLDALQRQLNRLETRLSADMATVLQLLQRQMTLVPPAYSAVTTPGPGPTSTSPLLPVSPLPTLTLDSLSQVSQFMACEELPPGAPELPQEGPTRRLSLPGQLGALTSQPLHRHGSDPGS
- Assay Comment: biochemical
- Experimental Conditions: hERG / IC50 (nM), Synthesis=Enamine
Parameter: log10 of IC50 (log10 of the value in nM)
Recorded IC50 (log10, nM)

CN(C)CCN(Cc1cccc(Cl)c1)c1cncc(Cl)n1 = 3.22

Returns the measured log10 of IC50 for the input molecule. Input: "CN(C)CCCn1nc(-c2ccccc2)c2ccccc2c1=O"
3.57

Request the reported log10 of IC50 associated with "CN(C)CCCn1nc(-c2ccc(Cl)cc2)c2ccccc2c1=O"
2.96

---

- Study Target: hERG potassium channel (Homo sapiens)
- Assay Comment: in vitro
- Experimental Conditions: % inhibition
Parameter: inhibition at 10 µM

Record excerpt, results attached:
CN(C)CCc1nc2ccccc2n1Cc1ccccc1Cl = 51.3%
CN(C)CCCn1nc(-c2ccccc2Cl)c2ccccc2c1=O = 10.6%
Clc1ccccc1-n1ccc(CNC2(c3ncccn3)CCOCC2)n1 = -0.942%
CN(C)CCCc1nc2ccccc2n1Cc1ccccc1 = 88.9%
CN(C)CCc1nc2ccccc2n1CCc1ccccc1 = 45.4%
Cc1csc2ccnc(N3CCOCC4(COCCN4Cc4ccccc4)C3)c12 (stereo not shown) = 62.1%

I have this compound here, "COCCN(CCN(C)C)C(=O)c1cccnc1Oc1ccc(Cl)cc1Cl" , and I need its recorded inhibition at 10 µM.
48.6%

Which inhibition at 10 µM value is on record for "CN(C)CCN(CCCc1ccccc1)C(=O)c1cn(C)c2ccccc12" ?
63.8%

What value of inhibition at 10 µM has been recorded for this entry: "CN(C)CCCN(Cc1ccc(Cl)c(Cl)c1)c1ncnc2ccn(C)c12"
75.9%

Which inhibition at 10 µM value is on record for "Cc1ccccc1Cn1c(CCN(C)C)nc2ccccc21" ?
9.23%

---

- Study Target: hERG potassium channel (Homo sapiens)
- Assay Comment: biochemical
- Experimental Conditions: hERG / Ki (nM), Synthesis=NBI
Please note: Ki exactly at 1000 nM is false. Only values below 1000 nM get true.

CSc1ncccc1-c1nn(CCCN(C)C)c(=O)c2ccccc12 = false
CN(C)CCn1nc(-c2ccc(Cl)cc2)c2ccccc2c1=O = false
CN(C)CCCn1nc(-c2cccnc2)c2ccccc2c1=O = false
CN(C)CCCn1nc(-c2ccc(Cl)cc2)c2ccccc2c1=O = true

Okay, now this molecule:
Strictly below 1000 nM: is that where Ki of "CN(C)CCn1nc(-c2ccccc2Cl)c2ccccc2c1=O" sits?
false
